- EXPERIMENTAL SYSTEM: HIV-1 92TH021 Env (CRF01_AE pseudovirus) (HIV-1)
- ASSAY PROCEDURE: cell-based or functional assay
READOUT NAME: IC50 (µg/mL), pseudovirus neutralization

Exercise: Returns the measured IC50 (µg/mL), pseudovirus neutralization for the input binder. Input: 1495_C14 (PGC14) (antibody, human IgG1, lambda, V domains shown) VH: DGHLVQSGVEVKKTGATVKISCKVSGYSFIDYYLHWVQRAPGKGLEWVGLIDPENGEARYAEKFQGRVTIIADTSIDTGYMEMRSLKSEDTAVYFCAAGAVGADSGSWFDPWGQGTLVTVSS VL: SYELTQPPSVSVSPGQTASITCSGSKLGDKYVSWYQLRPGQSPILVMYENDRRPSGIPERFSGSNSGDTATLTISGTQALDEADFYCQAWETTTTTFVFFGGGTQLTVLG
Solution: > 50 µg/mL

Exercise: Returns the measured IC50 (µg/mL), pseudovirus neutralization for the input binder. Input: 1456_P20 (PG20) (antibody, human IgG1, kappa, V domains shown) VH: QVRLVQSGPEVKKPGSSVTVSCQASGGTFSSYAFTWVRQAPGQGLEWLGMVTPIFGEAKYSQRFEGRVTITADESTSTTSIELRGLTSEDTAIYYCARDRRAVPIATDNWLDPWGQGTLVTVSS VL: DIQLTQSPSSLSASVGDRVSITCRASQTINNYLNWYQQTPGKAPKLLIYGASNLQNGVPSRFSGSGSGTDFTLTISSLQPEDFATYYCQQSFSTPRTFGQGTRLDIKR
Solution: > 50 µg/mL

Exercise: Returns the measured IC50 (µg/mL), pseudovirus neutralization for the input binder. Input: 1460_G14 (PGG14) (antibody, human IgG1, kappa, V domains shown) VH: QVLLVQSGTEVKKPGSSVKVSCQASGGAFSSYAFSWVRQAPGQGLEWMGMITPVFGETKYAPRFQGRLTLTAEESLSTTYMELRSLTSDDTAFYYCTRDRRVVPMATDNWLDPWGQGTLVTVSS VL: DIQLTQSPSSLSASVGDRVTVTCRASQTIHTYLNWYQQIPGKAPKLLIYGASTLQSGVPSRFSGSGSGTDFTLTINSLQPEDFATYYCQQSYSTPRTFGQGTRLDIKR
Solution: > 50 µg/mL

Exercise: Returns the measured IC50 (µg/mL), pseudovirus neutralization for the input binder. Input: 1443_C16 (PG16) (TCN-116) (antibody, V domains shown) VH: QEQLVESGGGVVQPGGSLRLSCLASGFTFHKYGMHWVRQAPGKGLEWVALISDDGMRKYHSDSMWGRVTISRDNSKNTLYLQFSSLKVEDTAMFFCAREAGGPIWHDDVKYYDFNDGYYNYHYMDVWGKGTTVTVSS VL: QSALTQPASVSGSPGQTITISCNGTSSDVGGFDSVSWYQQSPGKAPKVMVFDVSHRPSGISNRFSGSKSGNTASLTISGLHIEDEGDYFCSSLTDRSHRIFGGGTKVTVLG
Solution: 0.13 µg/mL
